solubility (mole fraction) values for the compounds below.
conditions: in methanol, 308.15 K
Respond using a number only.

[[record]]
compound_string = "NNC(=O)c1ccccc1O"
assay_metric = "solubility (mole fraction)"
quantitative_result = 0.0278


Task: Identify solubility (mole fraction) associated with the compound `NNC(=O)c1ccccc1`
Result: 0.0843

----------
solubility (mole fraction) values for the compounds below.
details: in ethanol, 318.15 K

[[record]]
compound_string = "NNC(=O)c1ccccc1O"
result = 0.0316


Now let's try a different one.
Task: Identify solubility (mole fraction) associated with the compound `NNC(=O)c1ccccc1`
Result: 0.0805

----------
settings: in methanol, 318.15 K
Assay Metric: solubility (mole fraction)
Respond using a number only.

Task: Identify solubility (mole fraction) associated with the molecule `NNC(=O)c1ccccc1`
Result: 0.118

Task: Identify solubility (mole fraction) associated with the molecule `NNC(=O)c1ccccc1O`
Result: 0.0382
